Measured IC50 of individual entries
- Target Of Assay: rhMAO-B (Homo sapiens (Human))
- Sequence (P27338 whole entry): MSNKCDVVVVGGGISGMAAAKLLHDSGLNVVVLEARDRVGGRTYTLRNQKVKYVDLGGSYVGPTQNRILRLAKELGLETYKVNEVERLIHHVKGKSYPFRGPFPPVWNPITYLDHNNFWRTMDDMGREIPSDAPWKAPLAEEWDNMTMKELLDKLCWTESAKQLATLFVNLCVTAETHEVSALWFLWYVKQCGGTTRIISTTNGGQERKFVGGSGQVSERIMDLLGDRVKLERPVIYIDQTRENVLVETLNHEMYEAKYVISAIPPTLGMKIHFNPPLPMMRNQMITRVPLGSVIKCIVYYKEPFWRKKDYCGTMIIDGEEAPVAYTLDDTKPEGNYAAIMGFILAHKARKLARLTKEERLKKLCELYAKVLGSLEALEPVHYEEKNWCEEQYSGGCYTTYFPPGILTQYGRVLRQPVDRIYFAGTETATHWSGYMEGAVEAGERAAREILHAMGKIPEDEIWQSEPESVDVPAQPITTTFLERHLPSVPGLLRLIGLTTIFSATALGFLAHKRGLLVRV
- Measurement Notes: MAO-Glo assay, MAO-B inhibition
- Format: biochemical
- Recorded Conditions: class symbols, ranges defined in μM

// worked examples, IC50 included
Compound: Cc1ccc(CNc2nc3ccc(OC/C(=C/F)CN)cc3o2)cn1 [Example 55, 4-methylbenzenesulfonate]
IC50: 1 to 10 µM
//
Compound: NC/C(=C\F)COc1ccc2nc(N3CCC(O)C3)oc2c1 (stereo not drawn)
IC50: 1 to 10 µM
//
Compound: CCCCc1nc2ccc(OC/C(=C/F)CN)c(Br)c2s1
IC50: < 0.1 µM

Lab note: next compound to report on.
Give the measured IC50 for NC/C(=C/F)COc1ccc2nc(NCc3ccc(C(F)(F)F)nc3)oc2c1 [Example 83, 4-methylbenzenesulfonate]
1 to 10 µM
